tested on: RXF 393 renal; test: NCI-60 one-dose screen, 48 h (100 = growth as untreated, 0 = no growth, -100 = all killed); details: 10 µM unless noted
Compounds without any hit were thinned out: in the full panel of roughly 83,000, 20% have a hit.
measurement_label: growth (%)
Provide only the numeric value, understood in %.

Answered examples (6):
molecule	unit_label	growth
CCCCCCCCCCC(C[N+](C)(C)C/C=C/c1ccccc1)C(O)c1ccccc1 (stereo not given)	%	-54.3
O=C1C=C(OCC=C(C(F)(F)F)C(F)(F)F)c2ccccc2C1=O	%	-82.5
CCOC(=O)CNS(=O)(=O)CC(=O)c1ccccc1	%	117
COCn1c(C(=O)OC)cc2oc(/C=C3/SC(=S)N(N)C3=O)cc21	%	27.6
O=c1[nH]c2cc(O)ccc2n2cc3c(F)cccc3c12	%	4.74
CCN(CCO)CCNc1ccc(C)c2sc3cc(OC)ccc3c(=O)c12	%	71.4

Given C=C[C@]1(C)C=C2C(=O)[C@@]3(O)OC[C@@]4(CCCC(C)(C)C43O)C2(O)C(O)C1 (stereo not given in full) , state its recorded growth.
21.4

Try this molecule too: COc1ccc2c(N)ncc(C#Cc3cc(C(=O)Nc4ccc(CN5CCN(C)CC5)c(C(F)(F)F)c4)cnc3C)c2c1
-73.4

And for COC(=O)c1cc(=O)nc(N/N=C/c2ccccc2O)s1 ?
99.7

Let us now turn to Cc1nnc(-c2cc3c(ccc4ccccc43)oc2=O)c2cn(-c3ccc(Cl)cc3)nc12
103

----------
test system: SF-268 CNS; assay: NCI-60 one-dose screen, 48 h; conditions: 10 µM unless noted
About 83,000 compounds went through this panel and 20% of them were active in at least one assay; those are over-represented in the sample as a whole. The source made the active and inactive calls. How the source made its calls: active means growth percent below 10; inactive means the rest.
Classes to choose from: true = active, false = inactive

Outcome logged for CCN(CC)C(=O)C1(C)CCCC2(C)c3cc(OC(C)=O)ccc3CCC12 (stereo unspecified) in this assay:
false

Continue with CN(C)CCOC(=O)C(C)(C)C
false

Also O=C1/C(=C/c2ccc(Cl)cc2)CCC/C1=C\c1ccc(Cl)cc1 ?
false

Request: CCCCCCCCCCCCCCCCCC(=O)Nc1ccc(O)cc1
false

Do the same for O=S(=O)(O)CCI please
false

Same read-out for O=C1C(Cl)=C(Nc2ccc(Nc3ccccc3)c(NC3=C(Cl)C(=O)c4ccccc4C3=O)c2)C(=O)c2ccccc21 ?
false

Likewise for CCCCCCC(C(=O)OCC)(C(=O)OCC)C1CCCCCC1 ?
false

Continue with COc1ccc(C2C3(C#N)C(N)=NC(=C(C#N)C#N)C23C#N)cc1OC (stereo unspecified)
false

Now the compound Cc1ncc(C(=O)Nc2ccc(CN3CCN(C)CC3)c(C(F)(F)F)c2)cc1C#Cc1cnc(NC2CC2)c2ncccc12
true

Next entry: Cc1cc2cn3c4ccc(O)cc4nc(N)c3c2cc1C
false

Okay, and CCOC(=O)c1c2c(cn1Cc1ccccc1)-c1oncc1CC2 ?
false

Cc1ccccc1-n1c(C)nc2cc(NC(=O)c3ccc(Cl)cc3)ccc2c1=O ?
false

Also COc1ccc(-c2nc(SCC(C)C)nc(Nc3ccccc3)c2C#N)cc1 , if possible.
false

// next record O=C1C(Br)=CC2C1C1C3CCC3C2(Br)C12OCCO2 (stereo unspecified)
false

Now the same for C#CCCCCCCC[C@@H]1OC(=O)[C@H]([C@@H](C)CC)NC(=O)[C@H]([C@@H](C)CC)NC(=O)CC(=O)[C@@H]1C
false

Then CCC(C)[C@H](NC(=O)Nc1cc(C(F)(F)F)cc(C(F)(F)F)c1)C(=O)N[C@@H](Cc1cn(C)cn1)C(=O)OC (stereo partly specified) ?
true

Try the compound CCS(=O)(=O)N[C@@H]1O[C@H](COC(C)=O)C(OC(C)=O)[C@H](OC(C)=O)C1OC(C)=O (stereo partly specified)
false

And what about the compound CCCCCCCCC/C(=N\NC(=O)c1ccncc1)c1ccc(O)c(O)c1O ?
false

Lookup O=C(NC1CCN(Cc2ccccc2)CC1)c1cc(-c2cccnc2)nc2ccc(Cl)cc12
false

Note, next up: C=CCNC(=S)NNc1ccc([N+](=O)[O-])cn1
false

Would you kindly repeat that for CCOC(=O)c1cc(-c2ccc(OC)cc2)[nH]c1NNC(=O)CCOC ?
false

----------
system: 786-0 renal; assay: NCI-60 one-dose screen, 48 h (100 = growth as untreated, 0 = no growth, -100 = all killed); details: 10 µM unless noted
Compounds without any hit were thinned out: in the full panel of roughly 83,000, 20% have a hit.
Label Yes for high-side growth (at or above 90%) and No for low-side growth (below it).

See these solved cases before continuing.
molecule	qualitative_label
Cc1ncc(C(=O)Nc2ccc(CN3CCN(C)CC3)c(C(F)(F)F)c2)cc1C#Cc1cnc(NC2CC2)c2ncccc12	No
CCOc1ccc2nc3ccc(Cl)cc3nc2c1	No
COc1cc(-c2nn(-c3ccc(NC(=O)c4cc(Cl)cc(Cl)c4)cc3)cc2-c2ccncc2)ccc1Cl	No
CCOC(=O)C(C)C(C)(O)c1ccccc1 (stereo unspecified)	Yes
OCCN1CCCN(CCCN2c3ccccc3Sc3ccc(C(F)(F)F)cc32)CC1	No
C#CCCCCCCC[C@@H]1OC(=O)[C@H]([C@@H](C)CC)NC(=O)[C@@H]([C@@H](C)CC)NC(=O)CC(=O)[C@@H]1C	Yes
CCCCCSc1ccc2nc(NC(=O)OCCC)sc2c1	No
O=C(O)c1occ(Cl)c1Cl	Yes

Now look at this one.
Exam item: decide whether the reported growth for COc1ccc(Cn2cc3c(c2-c2ccccc2)CCc2cnoc2-3)cc1N is at least 90%.
No

----------
tested on: SNB-75 CNS; assay: NCI-60 one-dose screen, 48 h; conditions: 10 µM unless noted
This is part of a sample that, as a whole, favours compounds with a hit. Of some 83,000 tested, about 20% had one in any assay. Calls of active or inactive are those of the source. How the source made its calls: active means growth percent below 10; inactive means the rest.
Hi! Could you answer with just one of these? class 1 (active), class 0 (inactive)

Answered examples (10):
compound	qualitative_label
CCOC(=O)c1c(C)oc2ncnc(Nc3ccc(NC(=O)Nc4cccc(Cl)c4)cc3)c12	class 0
CCOc1nc(-c2ccccc2)cc2c(O)c(C(=O)N/N=C/c3ccccc3O)[nH]c(=O)c12	class 0
OCCN1CCN(CC/C=C2/c3ccccc3Sc3ccc(C(F)(F)F)cc32)CC1	class 0
Cc1c(Cc2ccccc2)c(=O)oc2c(C)c(OCC(=O)n3nc(C#N)cc3N)ccc12	class 0
O=C(N/N=C\c1ccc(Cl)cc1)C(=O)N/N=C\c1ccc(Cl)cc1	class 0
COc1cc2cc3cc4cc(OC)c(OC)cc4c(C)[n+]3cc2cc1OC (tested in a mixture with another compound)	class 0
O=C(Cc1ccccc1[N+](=O)[O-])c1ccc2c(c1)OCO2	class 0
CN1CCN(Cc2ccc(NC(=O)c3ccc(C#Cc4c(N)ncc5ccc(F)cc45)cc3)cc2C(F)(F)F)CC1	class 1
CCCCCCCCCCC1OC(C)CC(C)O1 (configuration not stated)	class 0
COc1cc(-c2nc(/C=C3/C(=O)Nc4ccccc43)c3ccccn23)cc(OC)c1OC	class 0

Which outcome did this test record for the compound O=C(O)c1ccc(Br)nc1 ?
class 0

Please give the result for COC(=O)c1ccc2[nH]c(O)c(C(=Nc3ccc(N(C)C(=O)CN4CCN(C)CC4)cc3)c3ccc(C)cc3)c2c1 too.
class 1

Try the compound O=C1Nc2ccccc2/C1=C/c1cn(CC(O)Cn2cc(/C=C3\C(=O)Nc4ccccc43)c3ccccc32)c2ccccc12 (configuration not stated)
class 1

Now the same for C=CCSc1nnc(COc2ccc3c(C)c(Cc4ccccc4)c(=O)oc3c2C)o1
class 0

Another compound: O=C(O)/C(Br)=C/c1c[nH]c2ccc(Br)cc12
class 0

Next up: COc1ccc(-c2nc(Nc3nc4ccccc4[nH]3)nc(N)c2C#N)cc1
class 0

----------
tested on: M14 melanoma; assay: NCI-60 one-dose screen, 48 h; conditions: 10 µM unless noted
About 83,000 compounds went through this panel and 20% of them were active in at least one assay; those are over-represented in the sample as a whole. Calls of active or inactive are those of the source. The calls were made as follows: active = growth percent below 10; inactive = the rest.
Thanks in advance; please answer with one of these: YES (active), NO (inactive)

compound	qualitative_label
CCCCCCC(C(=O)OCC)(C(=O)OCC)C1CCCCCC1	NO
O=C(C(=O)N1CCOCC1)c1ccc(O[C@H]2O[C@H](CO)[C@@H](O)[C@H](O)[C@@H]2O)cc1	NO
N#Cc1c2ncccc2c2nnc3cc(Cl)c(Cl)cc3n12	NO

Which outcome was entered for the compound C#CCCCCCCC[C@@H]1OC(=O)[C@H]([C@@H](C)CC)NC(=O)[C@@H]([C@@H](C)CC)NC(=O)CC(=O)[C@@H]1C in this test?
NO

Next: CC([C@H]1CCC2C3CCC4C[C@@H](N)CC[C@]4(C)C3CC[C@@]21C)N(C)C (some centres undefined)
YES

Also N=C(N)N=Nc1ccc(NN=C(N)N)cc1 , if possible.
NO

Please give the result for Cn1c2ccccc2c2ccccc21 too.
NO

// same read-out, input: CC(=O)O.[In]
NO

Can you handle O=C(Nc1cccc(Cn2c(=O)[nH]c3ccc(Oc4ncccn4)cc3c2=O)c1)c1cc(Cl)cc(Cl)c1 next?
NO

Try CCCCCCNC(=O)Oc1ccc(/C(=C(/C)Cc2ccc(OC)cc2)c2ccc(OCCN(C)C)cc2)cc1 next.
YES

Now give it for CC(C)(CNC1CCCCC1)OC(=O)c1ccccc1 too.
NO

Here is the next compound: CCOc1ccc(N(C)c2ccc(/C=C/C3=[N+](C)c4ccccc4C3(C)C)cc2)cc1
YES

Now give it for O=C(Oc1ccccc1)c1ccccc1Cl too.
NO
